# Test system: VSV-G pseudotyped HIV-1 vector (wild-type, pNL4-3LucR+E-)
# method-description: microbe, parasite or virus in culture
# Assay type: cell-based
# condition-description: Human immunodeficiency virus 1, HEK-293T
pIC50: −log10 of the molar value.

- chem-smiles: "Clc1ccccc1-c1nc2ccccn2c1NC1CCCCC1"
  pIC50: 6.10

* * *

# method-description: cytotoxicity, CellTiter-Glo (ATP content) 24 hours after treatment
# condition-description: human, mock-infected 293T cells

- compound: "Clc1ccccc1-c1nc2ccccn2c1NC1CCCCC1 [08-006-F2]"
  CC50 at 24 h: "35 µM"

* * *

# Tested on: VSV-G pseudotyped HIV-1 vector (wild-type, pNL4-3LucR+E-)
# method-description: microbe, parasite or virus in culture
# Format: cell-based
# condition-description: Human immunodeficiency virus 1, HEK-293T, read-out: IC50 inhibition of HIV-1 vector infectivity

- chem-smiles: "Clc1ccccc1-c1nc2ccccn2c1NC1CCCCC1"
  system-tested: "VSV-G pseudotyped HIV-1 vector (wild-type, pNL4-3LucR+E-)"
  unit-of-measurement: "nM"
  IC50: 170
